Values were extracted from ChEMBL document CHEMBL1201862.

Biological target: Microphthalmia-associated transcription factor (Homo sapiens)
Sequence (O75030 whole entry): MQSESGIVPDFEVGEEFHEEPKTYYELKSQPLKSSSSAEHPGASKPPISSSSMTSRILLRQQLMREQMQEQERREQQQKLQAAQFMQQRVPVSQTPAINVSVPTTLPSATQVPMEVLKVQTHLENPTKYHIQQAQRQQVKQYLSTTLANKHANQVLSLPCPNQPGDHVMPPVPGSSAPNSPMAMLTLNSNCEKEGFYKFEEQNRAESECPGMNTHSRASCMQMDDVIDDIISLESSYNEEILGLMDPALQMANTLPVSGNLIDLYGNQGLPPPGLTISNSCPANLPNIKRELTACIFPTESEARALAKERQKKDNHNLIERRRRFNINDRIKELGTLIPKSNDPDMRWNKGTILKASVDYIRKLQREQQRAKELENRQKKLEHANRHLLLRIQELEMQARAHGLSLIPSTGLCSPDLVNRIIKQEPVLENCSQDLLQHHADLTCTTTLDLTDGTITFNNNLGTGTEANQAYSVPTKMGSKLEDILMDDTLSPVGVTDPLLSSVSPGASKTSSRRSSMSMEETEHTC
Experiment: TRPM1 promoter luciferase signal decrease, dose response, MITF inhibitor project, cell-based, SK-MEL-5, cherry-picked, set 3 (AID 493073)
Type: functional
Activity calls are given as the source filed them. No rule for the calls is given here.
Value Kind: AC50

Param readout= AC50; system= Microphthalmia-associated transcription factor (Homo sapiens); entry= "COc1cccc(/C=C2/Sc3ccc(C(=O)NCCN4CCCC4)cc3NC2=O)c1" ; returns value.
17.9 µM (active)

Entry to check: "Cc1ccc2nc(C)cc(Nc3ccc([N+](=O)[O-])cc3)c2c1"
5.88 µM (active)

What about "COC(=O)c1ccc(-n2c(C)cc(C(=O)CCl)c2C)cc1" ?
7.46 µM (active)

Subsequent entry: "Cc1ccc(-c2cn3nc(C)c(C)nc3n2)cc1"
5.3 µM (active)
